This section presents molecules with their documented log10 IC50 values.
Test Target: 20S proteasome
Run Description: Inhibition of chymotrypsin-like activity of human 20S proteasome using Suc-Leu Leu-Val-Tyr-AMC as substrate preincubated for 15 mins followed by substrate addition measured by fluorescence assay
Answers are given as log10 of IC50 in nM.

>  <Smiles Str>
COc1ccc(N(C)C(=O)C2CCN(C(=O)N[C@@H](CC(=O)NCC(C)(C)C)C(=O)N[C@@H](CCc3ccccc3)C(=O)N[C@@H]3CCCc4ccccc43)CC2)cc1

>  <Observed>
1.40

$$$$

Would you mind telling me what log10 IC50 value was observed for CC(C)(C)CNC(=O)C[C@H](NC(=O)N1CCC(C(=O)Nc2cccnc2)CC1)C(=O)N[C@@H](CCc1ccccc1)C(=O)N1CCc2ccccc2C1 ?
3.20

Would you mind telling me what log10 IC50 value was observed for CN(Cc1ccccc1Cl)C(=O)[C@H](CCc1ccccc1)NC(=O)[C@H](CC(=O)NCC(C)(C)C)NC(=O)N1CCC(C(=O)Nc2cccnc2)CC1 ?
3.24

Would you mind telling me what log10 IC50 value was observed for CC(C)(C)CNC(=O)C[C@H](NC(=O)N1CCC(C(=O)N2CCCc3ccccc32)CC1)C(=O)N[C@@H](CCc1ccccc1)C(=O)N[C@@H]1CCCc2ccccc21 ?
0.91

Would you mind telling me what log10 IC50 value was observed for CN(C(=O)C1CCN(C(=O)N[C@@H](CC(=O)NCC(C)(C)C)C(=O)N[C@@H](CCc2ccccc2)C(=O)N[C@@H]2CCCc3ccccc32)CC1)c1ccncc1 ?
0.97

Entry source: ChEMBL document CHEMBL5154760
